Assay: Cytotoxicity in H9 or Sup T1 cells (trypan blue dye exclusion)
Type: cell-based
Conditions: human; concentration that causes death of cells by 50%; H9 or Sup T1 cells, 37° C; read-out: CT50 (the source's name)
Protocol: To determine the cytotoxicity of the compounds of the present invention, 0.1 μM to 100 μM of the novel compounds were added to H9 cell or Sup T1 cell and the mixture was cultured on a rpmi-1640 medium at 37° C. The medium was refreshed every 3 days and the extent of cell proliferation was observed using Hemacytometer according to the trypan blue dye exclusion technique which is well known in the art. CT50 (i.e., concentration that causes death of cells by 50%) was determined. […]
A collection of compounds and their measured CC50

compound_structure=NC(=O)C[C@H](NC(=O)c1cnc2ccccc2n1)C(=O)N[C@@H](Cc1ccccc1)[C@H]1O[C@H]1CCc1ccccc1 test_readout=CC50 measured_result="> 100 µM"
compound_structure=CC(C)[C@H](NC(=O)OCc1ccccc1)C(=O)N[C@@H](Cc1ccccc1)[C@H]1O[C@H]1CNC(=O)OC(C)(C)C test_readout=CC50 measured_result="> 10 µM"

-- ask Given the entry "CC(C)C(NC(=O)C[C@@H]1O[C@@H]1[C@H](Cc1ccccc1)NC(=O)[C@H](CC(N)=O)NC(=O)c1ccc2ccccc2n1)C(C)C" , report its measured CC50.
-- reply > 100 µM

-- ask Item "CC[C@H](C)[C@H](NC(=O)C[C@@H]1O[C@@H]1[C@H](Cc1ccccc1)NC(=O)[C@H](CC(N)=O)NC(=O)c1ccc2ccccc2n1)C(=O)NCc1ccccn1" has what recorded CC50?
-- reply > 100 µM

-- ask Any idea what its CC50 is? The compound is "CC(C)[C@@H](CCc1ccccc1)NC(=O)C[C@@H]1O[C@@H]1[C@H](Cc1ccccc1)NC(=O)[C@H](CC(N)=O)NC(=O)c1ccc2ccccc2n1"
-- reply > 100 µM

-- ask Consider the compound shown here: "CC[C@H](C)[C@H](NC(=O)C[C@@H]1O[C@@H]1[C@H](Cc1ccccc1)NC(=O)[C@@H](NC(=O)N(C)Cc1ccccn1)C(C)C)C(=O)OC" What is its recorded CC50?
-- reply > 100 µM

-- ask Suppose we examine the compound "CC(C)[C@H](NC(=O)OCc1ccccc1)C(=O)N[C@@H](Cc1ccccc1)[C@H]1O[C@H]1CNC(=O)[C@H](CC(N)=O)NC(=O)OCc1ccccc1" ; what CC50 value has been reported?
-- reply > 100 µM

-- ask GET /values?readout=CC50&item= "CC(C)(C)OC(=O)NC[C@@H]1O[C@@H]1[C@H](Cc1ccccc1)NC(=O)[C@H](CC(N)=O)NC(=O)c1ccc2ccccc2n1"
-- reply > 10 µM

-- ask Report CC50 for "CC(C)CC[C@@H]1O[C@@H]1[C@H](Cc1ccccc1)NC(=O)[C@H](CC(N)=O)NC(=O)c1ccc2ccccc2n1" please.
-- reply > 100 µM

-- ask Any idea what its CC50 is? The compound is "CC[C@H](C)[C@H](NC(=O)C[C@@H]1O[C@@H]1[C@H](Cc1ccccc1)NC(=O)[C@H](CC(N)=O)NC(=O)c1ccc2ccccc2n1)C(N)=O"
-- reply ~10 µM

-- ask # query: CC50 of entry "CC(C)[C@H](NC(=O)OCc1ccccc1)C(=O)NC[C@@H]1O[C@@H]1[C@H](CC1CCCCC1)NC(=O)[C@@H](NC(=O)OCc1ccccc1)C(C)C"
-- reply > 100 µM

-- ask Endpoint output: CC50 of "CC(C)[C@H](NC(=O)OCc1ccccc1)C(=O)N[C@@H](Cc1ccccc1)[C@H]1O[C@H]1CCc1ccccc1" . Value?
-- reply > 100 µM
